Overview of recorded Weight Losing Rate (day 9) for various compounds
Test system: influenza A virus H1N1 (H1N1 A/WSN/33)
Procedure text: In vivo pharmacodynamics in mouse infection model of influenza A virus H1N1
Condition description: female BALB/c mice, H1N1 A/WSN/33, 10 mg/kg oral twice a day, day 1 to day 7, first dose 36 hours after infection; day 9
Report the value in % with no unit label.

| Compound | Units label | Weight Losing Rate (day 9) |
| --- | --- | --- |
| O=C(O)[C@H]1C2CCC(CC2)[C@@H]1Nc1nc(-c2n[nH]c3ncc(F)cc23)nc(C2CC2(F)F)c1F (stereo partly drawn) | % | 27.3 |
| O=C(O)[C@H]1C2CCC(CC2)[C@@H]1Nc1nc(-c2n[nH]c3ncc(F)cc23)nc(C2CC2)c1F | % | 4.8 |
| CC1(c2nc(-c3n[nH]c4ncc(F)cc34)nc(N[C@H]3C4CCC(CC4)[C@@H]3C(=O)O)c2F)CC1 | % | 35.3 |
| Cn1cc(-c2nc(-c3c[nH]c4ncc(F)cc34)nc(N[C@H]3C4CCC(CC4)[C@@H]3C(=O)O)c2F)cn1 | % | 12.9 |
| O=C(O)[C@H]1C2CCC(CC2)[C@@H]1Nc1nc(-c2c[nH]c3ncc(F)cc23)nc(-c2ccc(CN3CCOCC3)s2)c1F | % | 27.6 |

// moving on: another record for Weight Losing Rate (day 9)
Input line: Please give the measured Weight Losing Rate (day 9) for this compound: CN(C)Cc1ccc(-c2nc(-c3c[nH]c4ncc(F)cc34)nc(N[C@H]3C4CCC(CC4)[C@@H]3C(=O)O)c2F)s1
Output line: 28.7
